B1: HDV Ribozyme (parent)
chain: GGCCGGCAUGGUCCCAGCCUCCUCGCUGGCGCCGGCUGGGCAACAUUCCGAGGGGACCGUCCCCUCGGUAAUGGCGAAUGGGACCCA

Variants of: B1
experimental details: self-cleavage, relative activity (ratio to wild type); higher = more cleavage; co-transcriptional
A collection of variants and their measured self-cleavage

changes: G6U G67U
val: 0.62
//
changes: C41U G81U
val: 0.205

IN: Any idea what self-cleavage was measured for C14A U79C ?
OUT: 0.173

IN: Any idea what self-cleavage was measured for C57A C75A ?
OUT: 0.277

IN: Any idea what self-cleavage was measured for C44G C75G ?
OUT: 0.256

IN: Any idea what self-cleavage was measured for C3A C15A ?
OUT: 0.306

IN: Any idea what self-cleavage was measured for U37A A77U ?
OUT: 0.104

IN: Any idea what self-cleavage was measured for U46G A71G ?
OUT: 0.772

IN: Any idea what self-cleavage was measured for C63G C84U ?
OUT: 0.629
